This collection of values is drawn from patent US12583915.

target: T1, Myc-tag BAG2 (Homo sapiens (Human), UniProt O95816 1-211, limits assumed); test: sandwich ELISA on lysate of MDA-MB-231 cells overexpressing Myc-tag BAG2 (OE) against empty vector cells (EV)
T1 construct: Expressed in MDA-MB-231 cells; 30 ug of lysate tested in the sandwich ELISA against cells with the Myc-tag empty vector (EV); not tied to this vector in so many words; also called BAG2 overexpressed from the Myc-tag BAG2 expression vector; OE; not shown: Myc tag
T1 sequence (O95816 whole entry): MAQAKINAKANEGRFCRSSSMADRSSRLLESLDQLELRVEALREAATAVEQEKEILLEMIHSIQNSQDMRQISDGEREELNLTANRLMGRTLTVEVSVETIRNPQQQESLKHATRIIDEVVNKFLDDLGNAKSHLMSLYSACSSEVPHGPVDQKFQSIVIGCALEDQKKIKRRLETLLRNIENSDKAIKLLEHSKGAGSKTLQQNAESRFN
measured.attribute: binding result

1) 9B12 antibody (antibody, V domains shown, Mouse monoclonal antibody from a hybridoma; Capture antibody in the sandwich ELISA; also called anti-BAG2 antibody 9B12) VH: QVQLQQSGAELVRPGTSVKVSCKASGYAFTNYMIEWIKQRPGQGLEWIGVINPGSGGSYYNEKVKGKATLTADRSSSTAYMQFSSLTADDSGVYFCRIYGNYKGYFDHWGQGTTLTVSS VL: DIVMTQSPSSMYASLGERVTITCKASQDMNSYLSWFQQKPGKSPKTLIYRANRLVDGVPSRFSGSGSGQDYSLTISSLEYEDMGIYYCLQNDEFPFTFGSGTKLEMK ... binds
